# experiment: NCI Yeast Anticancer Drug Screen. Data for the rad50 strain (AID 155);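 note: 0% = growth of vehicle-only cultures of the same strain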
# statedConditions: S. cerevisiae rad50 strain growth inhibition; at 50.0 µM
About 79,000 compounds went through this panel and 15% of them were active in at least one assay; those are over-represented in the sample as a whole. Activity calls are given as the source filed them. Cut-off read from the data, not from the text of the source: active = growth inhibition above about 70%; inactive = the rest.
Return exactly one item of active, inactive

Known results for molecules:
- molecule: "COc1ccc(C23OCCN2C(=O)c2ccccc23)cc1 (stereo not drawn)"
  cat: "active"
- molecule: "CC(=O)OCC1OC(N2CCc3cc([N+](=O)[O-])ccc32)C(OC(C)=O)C(OC(C)=O)C1OC(C)=O (stereo not drawn)"
  cat: "inactive"
- molecule: "C/C=C1/C=CC2c3[nH]c4ccccc4c3CCN2C1 (stereo not drawn)"
  cat: "inactive"
- molecule: "Cc1ccc(Cc2n[nH]c(=O)n2N2C(=O)c3ccccc3C2=O)cc1"
  cat: "inactive"
- molecule: "CN=C1NS(=O)(=O)c2ccccc21"
  cat: "inactive"

What did this assay record as the result for NC(=S)C(=Nc1ccccc1F)Nc1ccccc1F ?
inactive

Follow-up entry: CC(=O)NC1C(=O)CC(c2ccccc2)N(C)C1c1ccccc1 (stereo not drawn)
inactive

How about this molecule: CC(=O)NC(C)(C)C1CCC(C)=C(c2ccccc2)C1 (stereo not drawn)
inactive

What do we get for CC(OC(=O)Nc1cccc(Cl)c1)c1ccccc1 (stereo not drawn) ?
active

Similarly, CC1OC(OC2C(Oc3c(-c4ccc(O)c(O)c4O)oc4cc(O)ccc4c3=O)OC(CO)C(O)C2O)C(O)C(O)C1O (stereo not drawn) ?
inactive

----------
# experiment: NCI Yeast Anticancer Drug Screen. Data for the bub3 strain (AID 167)
# statedConditions: S. cerevisiae bub3 mutant strain, at 5.0 µM (retest, dose inferred, filed as 0.5)
# Procedure: Growth inhibition of yeast strains with defined genetic alterations is measured as a screen for potential anti-cancer activity. Selected strains with alterations in DNA damage repair or cell cycle control were exposed to compounds and growth inhibition was measured relative to vehicle treated controls. The strain used in this assay is bub3
Compounds without any hit were thinned out: in the full panel of roughly 79,000, 15% have a hit. The source made the active and inactive calls. No stated cut-off is given here; in the data, active means growth inhibition above about 70%; inactive means the rest.
Respond using exactly one of the listed classes: TRUE for active, FALSE for inactive

Worked set:
- compound: "CC(=O)OC1CCCCCCCCCCC12OCCO2 (configuration not stated)"
  cat: "FALSE"
- compound: "CCOC(=O)N1c2ccc3ccccc3c2C=CC1C#N (configuration not stated)"
  cat: "FALSE"
- compound: "CC(=O)Nc1c([N+](=O)[O-])cc2c3c(cccc13)C=C2"
  cat: "FALSE"
- compound: "CC1C=CC(C)C2C(=O)C3C(C)C=CC(C)C3C(=O)C12 (configuration not stated)"
  cat: "FALSE"
- compound: "c1ccc2c(c1)ccc1ncccc12"
  cat: "FALSE"

So what was the verdict on CC(=O)CC(C)=NCCN=C(C)CC(C)=O.[Pd] in this test?
FALSE

----------
# experiment: NCI Yeast Anticancer Drug Screen. Data for the sgs1 mgt1 strain (AID 161);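 note: 0% = growth of cultures given vehicle only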
# statedConditions: S. cerevisiae sgs1 mgt1 strain, at 50.0 µM (retest, dose inferred, filed as 5.0)
The panel holds about 79,000 compounds, 15% with a hit somewhere; the sample as a whole holds those more often. Active and inactive are the calls of the source. No stated cut-off is given here; in the data, active means growth inhibition above about 70%; inactive means the rest.
Pick from label 1 (active), label 0 (inactive) when you respond.

Status in this test for CC1=CC(=O)C(O)=C/C1=C\C=C\c1ccccc1 ?
label 1

Also O=c1[nH]c2ccccc2c(O)c1/C=N/C(=S)NCCc1ccccc1 , if possible.
label 0

Then what about the molecule O=C(c1ccc(O)c(Br)c1)c1cc(Br)ccc1O ?
label 1
